The reported numbers originate from patent US20160287687A1.

- tested-on: T1, HLA-A*02:01 (human)
- T1 construct: MHC monomers first loaded with a UV-sensitive peptide (not identified) that is cleaved by UV light and exchanged for the test peptide; captured on streptavidin plates, detected with anti-β2m; also called peptide-receptive MHC molecules; MHC class I
- protocol-text: UV-ligand exchange + anti-b2m ELISA; peptide exchange yield grade (+ >=10%, ++ >=20%, +++ >=50, ++++ >=75%)
endpoint-name: peptide exchange yield

Example results:
- binder: "AVANTTFTV (source gene HSD3B7) [AVANTTFTV (SEQ ID NO: 20)]"
  peptide exchange yield: "20 to 50%"
- binder: "YLWSRVEKL (source gene LRRK2) [YLWSRVEKL (SEQ ID NO: 109)]"
  peptide exchange yield: "≥ 75%"
- binder: "VLMDLKALL (source gene DDX41) [VLMDLKALL (SEQ ID NO: 106)]"
  peptide exchange yield: "50 to 75%"
- binder: "SLLLAVTEV (source gene JAG2) [SLLLAVTEV (SEQ ID NO: 89)]"
  peptide exchange yield: "20 to 50%"
- binder: "FLLSLIDRL (source gene EGLN3) [FLLSLIDRL (SEQ ID NO: 7)]"
  peptide exchange yield: "50 to 75%"

Asked: Look at this binder and give its reported peptide exchange yield. RLIQGDQILSV (source gene INADL) [RLIQGDQILSV (SEQ ID NO: 21)]
Given back: 20 to 50%

Asked: Repeat for the following binder: GLIEDHFDVTV (source gene ERAP1) [GLIEDHFDVTV (SEQ ID NO: 63)]
Given back: 20 to 50%

Asked: Repeat for the following binder: NLWPMILTL (source gene ITGA3) [NLWPMILTL (SEQ ID NO: 51)]
Given back: 50 to 75%
